Measured normalised viability, listed per entry for reference.
- Test system: MDA-MB-436
- assay_explanation: normalised viability (% of control), CellTiter-Blue; higher = more viable cells (100 = DMSO, 0 = benzethonium chloride kill control)
- setup_conditions: incubation time: 72 h
Write the answer as a number in %, unit excluded.

Example cases with answers are listed next.
| molecule | unit_symbol | normalised viability |
| --- | --- | --- |
| O=NN(CCCl)C(=O)NC1CCCCC1 [Lomustine] (1 nM) | % | 109 |
| CCN(CC)CCOc1ccc(C(=C(Cl)c2ccccc2)c2ccccc2)cc1 [Clomifene] (1 nM) | % | 111 |
| Cn1nnc2c(C(N)=O)ncn2c1=O [Temozolomide] (1 nM) | % | 95.7 |
| NC1(c2ccc(-c3nc4ccn5c(=O)[nH]nc5c4cc3-c3ccccc3)cc2)CCC1 [MK-2206] (0.1 nM) | % | 108 |
| Cc1cc2c(F)c(Oc3ncnn4cc(OC[C@@H](C)O)c(C)c34)ccc2[nH]1 [Brivanib] (0.1 nM) | % | 114 |

Field normalised viability (MDA-MB-436), entry C[C@]12C=CC(=O)C=C1CC[C@@H]1[C@@H]2C(=O)C[C@@]2(C)[C@H]1CC[C@]2(O)C(=O)CO [Prednisone] (1 nM) : 110

Field normalised viability (MDA-MB-436), entry C[C@@H]1C[C@H]2[C@@H]3CCC4=CC(=O)C=C[C@]4(C)[C@@]3(F)[C@@H](O)C[C@]2(C)[C@@]1(O)C(=O)CO [Dexamethasone] (1 nM) : 85.8

Field normalised viability (MDA-MB-436), entry CC(C)C(=O)Nc1ccc([N+](=O)[O-])c(C(F)(F)F)c1 [Flutamide] (1 nM) : 94.7

Field normalised viability (MDA-MB-436), entry COc1cc2c(Oc3ccc(NC(=O)C4(C(=O)Nc5ccc(F)cc5)CC4)cc3F)ccnc2cc1OCCCN1CCOCC1 [Foretinib] (0.1 nM) : 95.8

* * *

- Test system: MDA-MB-453
- assay_explanation: drug sensitivity score (DSS), CellTiter-Glo (DSS (AUC-based score)); higher = stronger drug effect (viability inhibition or cytotoxicity); extreme values may be limits of the assay
- setup_conditions: incubation time: 72 h
measurement_name: drug sensitivity score
The answer should be written as a number, with no unit following it.

Example cases with answers are listed next.
| chemical_smiles | drug sensitivity score |
| --- | --- |
| O=C(O)CC[C@H]1CC[C@@](c2cc(F)ccc2F)(S(=O)(=O)c2ccc(Cl)cc2)CC1 | 0 |
| CC(C)(C)Cn1c(N)nc2ccc(-c3[nH]c(C(C)(C)C)nc3-c3ccc(F)cc3)nc21 | 1.72 |

Field drug sensitivity score (MDA-MB-453), entry "O=C(c1cc(Cc2n[nH]c(=O)c3ccccc23)ccc1F)N1CCN(C(=O)C2CC2)CC1" : 0

Field drug sensitivity score (MDA-MB-453), entry "CC(C)NC[C@@H](C(=O)N1CCN(c2ncnc3c2[C@H](C)C[C@H]3O)CC1)c1ccc(Cl)cc1" : 10.4

Field drug sensitivity score (MDA-MB-453), entry "NC(=O)c1cccc2cn(-c3ccc([C@@H]4CCCNC4)cc3)nc12" : 0

Field drug sensitivity score (MDA-MB-453), entry "CC/C(=C(\c1ccccc1)c1ccc(OCCN(C)C)cc1)c1ccccc1" : 5.28
